The values you see were collected from patent US20230312741A1.

assayed system: T1, human CD73 expressed on the cell surface (human, UniProt P21589 27-549)
T1 sequence: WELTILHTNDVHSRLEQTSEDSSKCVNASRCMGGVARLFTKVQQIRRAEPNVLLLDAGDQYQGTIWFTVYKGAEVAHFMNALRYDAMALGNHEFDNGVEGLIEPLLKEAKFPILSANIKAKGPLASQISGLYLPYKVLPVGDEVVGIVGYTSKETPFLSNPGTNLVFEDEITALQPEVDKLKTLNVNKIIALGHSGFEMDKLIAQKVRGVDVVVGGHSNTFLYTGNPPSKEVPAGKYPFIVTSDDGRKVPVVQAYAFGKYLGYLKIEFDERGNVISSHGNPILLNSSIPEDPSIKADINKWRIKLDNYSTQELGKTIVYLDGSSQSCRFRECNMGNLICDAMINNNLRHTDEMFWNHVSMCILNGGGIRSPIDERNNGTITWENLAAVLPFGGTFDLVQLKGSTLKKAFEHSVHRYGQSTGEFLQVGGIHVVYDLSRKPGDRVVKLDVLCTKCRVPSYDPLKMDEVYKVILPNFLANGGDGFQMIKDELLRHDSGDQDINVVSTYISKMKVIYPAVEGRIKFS
method summary: cell-based or functional assay
assay metric: IC50 for inhibiting the enzymatic activity of CD73 (Calu-6 cells) (µg/mL)
Give the value, in units of µg/mL, as a plain number.

Oleclumab (antibody, V domains shown) VH: EVQLLESGGGLVQPGGSLRLSCAASGFTFSSYAYSWVRQAPGKGLEWVSAISGSGGRTYYADSVKGRFTISRDNSKNTLYLQMNSLRAEDTAVYYCARLGYGRVDEWGRGTLVTVSS VL: QSVLTQPPSASGTPGQRVTISCSGSLSNIGRNPVNWYQQLPGTAPKLLIYLDNLRLSGVPDRFSGSKSGTSASLAISGLQSEDEADYYCATWDDSHPGWTFGGGTKLTVL; 0.177
ADI-37543 (antibody, human IgG4 S228P, kappa, F234A L235A, V domains shown) VH: QVQLQESGPGLVKPSETLSLTCAVSGYSISSGYYWAWIRQPPGKGLEWIGSIFHSGFTFYNPSLKSRVTISVDTSKNQFSLKLSSVTAADTAVYYCARASIYTPPPEYFQHWGQGTLVTVSS VL: DIQMTQSPSTLSASVGDRVTITCRASQSISSWLAWYQQKPGKAPKLLIYDASSLESGVPSRFSGSGSGTEFTLTISSLQPDDFATYYCQQSRIYSTFGGGTKVEIKR; 0.196
ADI-37497 (antibody, human IgG4 S228P, kappa, F234A L235A, V domains shown) VH: EVQLVESGGGLVQPGGSLRLSCAASGFTFDDYFMHWVRQAPGKGLEWVSGISWSSGPIDYADSVKGRFTISRDNAKNSLYLQMNSLRAEDTAVYYCAKGKYLPTGSVDYWGQGTLVTVSS VL: EIVLTQSPGTLSLSPGERATLSCRASQSVSSSYLAWYQQKPGQAPRLLIYGASSRATGIPDRFSGSGSGTDFTLTISRLEPEDFAVYYCQQYYDYPPITFGGGTKVEIKR; 0.147
ADI-37505 (antibody, human IgG4 S228P, kappa, F234A L235A, V domains shown) VH: QVQLVESGGGLVQPGGSLRLSCAASGFTFSNYAMTWVRQAPGKGLEWVSAISGRGTATYYADSVKGRFTISRDNSKNTLYLQMNSLRAEDTAVYYCARGGPYGSGSYWDTFDYWGQGTLVTVSS VL: EIVMTQSPATLSVSPGERATLSCRASQSVSSNLAWYQQKPGQAPRLLIYGASTRATGIPARFSGSGSGTEFTLTISSLQSEDFAVYYCQQYTNHYTFGGGTKVEIKR; 0.076

input: Request the reported IC50 for inhibiting the enzymatic activity of CD73 (Calu-6 cells) associated with ADI-37513 (antibody, human IgG4 S228P, kappa, F234A L235A, V domains shown) VH: EVQLLESGGGVVQPGRSLRLSCAASGFTFNFYGMHWVRQAPGKGLEWVAVINDEGINKYYADSVKGRFTISRDNSKNTLYLQMNSLRAEDTAVYYCARGGARYPIAFDIWGQGTMVTVSS VL: DIQLTQSPSSVSASVGDRVTITCRASQDISSWLAWYQQKPGKAPKLLIYAASSLQSGVPSRFSGSGSGTDFTLTISSLQPEDFATYYCQQANDFPITFGGGTKVEIKR
output: 0.143
